Test system: CCRF-CEM leukemia
PROTOCOL_DETAILS: NCI tumour cell line growth inhibition, 48 h
So I've got a bunch of molecules here, and I need their TGI values.

Solved entries (count: 2):
CCCCn1c2cc(OCc3cn(-c4ccc(Cl)cc4)nn3)ccc2c2ccnc(C)c21 : > 33.3 µM
CC(C)CCCC(C)[C@H]1CC[C@H]2NCCCC[C@]12C (some centres not stated) : 4.16 µM

Could I get TGI for every one of these entries?
1. COc1ccccc1-[n+]1cc(-c2ccc(-c3ccccc3)cc2)n2c1CCCCC2
2. Clc1ccc(-n2nnc(C3=NCCN3)c2-c2ccccc2)cc1
3. COCCN(C(=O)c1ccccc1)C1CCC(=O)c2[nH]c3ccccc3c21 (configuration not stated)

Result:
1: 23.9 µM; 2: > 100 µM; 3: 26.8 µM

All values here come from PubChem BioAssay (NCI).
